The origin of these recorded values is patent US20240018502A1.

Target: plasma purified human complement protein C3 (human) (UniProt P01024)
Sequence (P01024 23-667, chain 1 of 2): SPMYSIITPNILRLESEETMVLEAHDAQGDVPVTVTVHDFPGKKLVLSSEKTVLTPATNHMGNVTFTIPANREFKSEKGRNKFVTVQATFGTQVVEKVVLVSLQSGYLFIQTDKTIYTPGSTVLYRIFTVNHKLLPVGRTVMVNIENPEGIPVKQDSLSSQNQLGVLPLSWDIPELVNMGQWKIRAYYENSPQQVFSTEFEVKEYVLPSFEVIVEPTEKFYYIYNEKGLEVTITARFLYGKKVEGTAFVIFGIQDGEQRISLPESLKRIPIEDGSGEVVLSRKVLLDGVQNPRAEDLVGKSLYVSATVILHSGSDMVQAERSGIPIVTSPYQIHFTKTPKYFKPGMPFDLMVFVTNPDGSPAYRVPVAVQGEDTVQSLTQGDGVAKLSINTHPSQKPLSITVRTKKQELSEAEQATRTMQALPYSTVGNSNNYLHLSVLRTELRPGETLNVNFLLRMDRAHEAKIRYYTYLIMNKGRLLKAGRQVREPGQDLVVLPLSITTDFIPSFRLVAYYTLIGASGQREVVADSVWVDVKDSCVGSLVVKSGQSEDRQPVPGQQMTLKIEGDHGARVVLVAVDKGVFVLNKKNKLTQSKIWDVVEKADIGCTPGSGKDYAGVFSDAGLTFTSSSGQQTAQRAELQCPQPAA
Sequence (P01024 672-1663, chain 2 of 2): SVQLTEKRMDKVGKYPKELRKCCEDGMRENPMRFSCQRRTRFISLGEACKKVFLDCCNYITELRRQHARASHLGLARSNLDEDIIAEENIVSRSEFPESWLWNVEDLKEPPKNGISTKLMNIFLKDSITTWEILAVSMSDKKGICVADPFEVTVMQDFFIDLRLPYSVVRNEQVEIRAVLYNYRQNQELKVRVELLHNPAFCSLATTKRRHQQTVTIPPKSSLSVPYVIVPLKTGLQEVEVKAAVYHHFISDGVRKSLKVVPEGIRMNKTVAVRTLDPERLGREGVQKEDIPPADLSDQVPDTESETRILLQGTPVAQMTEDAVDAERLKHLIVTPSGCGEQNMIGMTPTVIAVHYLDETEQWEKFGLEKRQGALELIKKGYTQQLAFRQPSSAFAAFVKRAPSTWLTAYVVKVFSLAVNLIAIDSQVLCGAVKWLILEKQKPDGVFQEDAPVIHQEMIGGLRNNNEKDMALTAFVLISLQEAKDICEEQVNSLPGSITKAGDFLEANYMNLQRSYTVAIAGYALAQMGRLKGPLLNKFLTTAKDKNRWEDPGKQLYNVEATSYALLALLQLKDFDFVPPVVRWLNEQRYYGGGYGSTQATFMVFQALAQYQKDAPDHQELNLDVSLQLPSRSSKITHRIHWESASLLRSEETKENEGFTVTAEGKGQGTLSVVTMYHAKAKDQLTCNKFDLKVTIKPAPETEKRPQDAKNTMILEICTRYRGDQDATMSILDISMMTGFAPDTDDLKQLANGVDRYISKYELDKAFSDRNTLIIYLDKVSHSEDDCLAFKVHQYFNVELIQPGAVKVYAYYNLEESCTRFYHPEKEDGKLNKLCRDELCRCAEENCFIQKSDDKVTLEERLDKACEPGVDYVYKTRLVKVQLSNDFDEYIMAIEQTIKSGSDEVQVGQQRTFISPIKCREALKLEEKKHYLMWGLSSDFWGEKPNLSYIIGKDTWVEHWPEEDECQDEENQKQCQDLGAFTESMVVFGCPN
Experiment: cell-based or functional assay
readout-kind: EC50 of hC3 cleavage (nM)
Provide only the numeric value, understood in nM.

MTSP-1 ins97aE/F97Y/T98S/F99L/C122S/Q192T/D217Q/K224R (enzyme) VVGGTDADEGEWPWQVSLHALGQGHICGASLISPNWLVSAAHCYIDDRGFRYSDPTQWTAFLGLHDQSQRSAPGVQERRLKRIISHPFFNDYESLDYDIALLELEKPAEYSSMVRPISLPDASHVFPAGKAIWVTGWGHTQYGGTGALILQKGEIRVINQTTCENLLPQQITPRMMCVGFLSGGVDSCTGDSGGPLSSVEADGRIFQAGVVSWGQGCAQRNRPGVYTRLPLFRDWIKENTGV    249
MTSP-1 I41R/ins97aE/F97T/T98G/F99L/C122S/G151E/Q175T/Q192D (enzyme) VVGGTDADEGEWPWQVSLHALGQGHRCGASLISPNWLVSAAHCYIDDRGFRYSDPTQWTAFLGLHDQSQRSAPGVQERRLKRIISHPFFNDTEGLDYDIALLELEKPAEYSSMVRPISLPDASHVFPAGKAIWVTGWGHTQYGGTEALILQKGEIRVINQTTCENLLPQTITPRMMCVGFLSGGVDSCDGDSGGPLSSVEADGRIFQAGVVSWGDGCAQRNKPGVYTRLPLFRDWIKENTGV    1770

# EC50 of hC3 cleavage of MTSP-1 Q38H/I41S/D60bS/F93L/D96Y/ins97aV/F97D/T98P/F99L/C122S/I136F/Q192G/D217V (enzyme) VVGGTDADEGEWPWQVSLHALGHGHSCGASLISPNWLVSAAHCYIDSRGFRYSDPTQWTAFLGLHDQSQRSAPGVQERRLKRIISHPLFNYDVPLDYDIALLELEKPAEYSSMVRPISLPDASHVFPAGKAFWVTGWGHTQYGGTGALILQKGEIRVINQTTCENLLPQQITPRMMCVGFLSGGVDSCGGDSGGPLSSVEADGRIFQAGVVSWGVGCAQRNKPGVYTRLPLFRDWIKENTGV = 9.56
